- Test System: T1, COVID S1 RBM Fc fusion (Antigen 2) (SARS-CoV-2, UniProt P0DTC2 437-508)
- T1 construct: domain: RBM
- Experimental Details: phage ELISA
Endpoint Label: specificity ELISA, fold over background (fold over background)
Quick reminder: number only, in fold over background, skip the unit.

- Binder: "SARS-CoV-2 variant 1-41 (antibody, V domains shown) VH: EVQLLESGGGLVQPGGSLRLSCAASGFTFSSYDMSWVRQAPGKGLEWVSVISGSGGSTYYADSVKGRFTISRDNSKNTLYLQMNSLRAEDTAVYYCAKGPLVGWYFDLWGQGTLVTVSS VL: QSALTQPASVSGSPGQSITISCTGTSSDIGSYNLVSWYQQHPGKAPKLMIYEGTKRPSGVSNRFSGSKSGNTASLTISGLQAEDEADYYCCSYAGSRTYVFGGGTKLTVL"
  Endpoint Label: "specificity ELISA, fold over background"
  Numeric Value: 1.2

Then there is this binder:
Prompt line: Query: specificity ELISA, fold over background; subject: SARS-CoV-2 variant 1-32 (antibody, V domains shown) VH: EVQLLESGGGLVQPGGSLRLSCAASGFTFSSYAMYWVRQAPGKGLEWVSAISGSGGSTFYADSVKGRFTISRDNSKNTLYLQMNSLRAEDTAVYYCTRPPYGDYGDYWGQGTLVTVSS VL: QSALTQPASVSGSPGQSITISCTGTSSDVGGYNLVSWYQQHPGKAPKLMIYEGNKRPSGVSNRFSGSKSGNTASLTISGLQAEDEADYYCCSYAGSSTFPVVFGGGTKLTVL
Response line: 1.1
